biological target: SARS-CoV-2 Mpro (Severe acute respiratory syndrome coronavirus 2); type: biochemical
measurement-name: reversibility of Mpro inhibition on dilution

1) O=c1cc(-c2ccccc2)oc2cc(O)c(O)c(O)c12 [Baicalein, reference compound]: reversible
2) O=c1cc(-c2ccc(O)cc2)oc2cc(O)cc(O)c12: reversible
3) O=c1cc(-c2ccc(O)c(-c3c(O)cc(O)c4c(=O)cc(-c5ccc(O)cc5)oc34)c2)oc2cc(O)cc(O)c12: reversible

* * *

target: SARS-CoV-2 Mpro (Severe acute respiratory syndrome coronavirus 2, UniProt P0DTD1)
measurement-name: pIC50
Note on pIC50: it is the negative log10 of concentration, concentration in mol/L.

Incoming: For the record O=c1cc(-c2ccc(O)cc2)oc2cc(O)cc(O)c12 [apigenin] , what value of pIC50 is listed for SARS-CoV-2 Mpro (Severe acute respiratory syndrome coronavirus 2, UniProt P0DTD1)?
Outgoing: 4.70
